test-summary: NCI Yeast Anticancer Drug Screen. Data for the mlh1 rad18 strain (AID 175)
conditions-used: S. cerevisiae mlh1 rad18 strain growth inhibition; at 5.0 µM (retest, dose inferred, filed as 0.5); active compounds read high
Compounds without any hit were thinned out: in the full panel of roughly 79,000, 15% have a hit.
quantity-name: growth inhibition (%)

C=Cc1cc(N=Nc2ccc([N+](=O)[O-])cc2)ccc1N(C)C | -9
COc1ccccc1NC(=O)CC(=O)N1N=C(c2ccccc2)C(N=Nc2ccc(Cl)cc2)C1=O (stereo not drawn) | 6
Cc1cccc2c(C(=O)CBr)cc(-c3ccc(Cl)cc3)nc12 | 88

###

test-summary: NCI Yeast Anticancer Drug Screen. Data for the rad50 strain (AID 155);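 further: 0% = growth of vehicle-only cultures of the same strain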
conditions-used: S. cerevisiae rad50 strain growth inhibition; at 50.0 µM
About 79,000 compounds went through this panel and 15% of them were active in at least one assay; those are over-represented in the sample as a whole. Activity calls are given as the source filed them. No stated cut-off is given here; in the data, active means growth inhibition above about 70%; inactive means the rest.
Outcomes: active, inactive

CN=S(=O)(OCCCCCCCCCOS(=O)(=NC)c1ccc(C)cc1)c1ccc(C)cc1 (stereo not drawn) | inactive
O=C1CC(c2ccccc2)C(c2ccccc2)CO1 (stereo not drawn) | active
O/N=C(/CCc1ccccc1Cl)c1ccccc1 | active

###

test-summary: NCI Yeast Anticancer Drug Screen. Data for the cln2 rad14 strain (AID 165);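 further: 0% = growth equal to vehicle treated cultures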
conditions-used: S. cerevisiae cln2 rad14 strain, at 5.0 µM (retest, dose inferred, filed as 0.5)
Compounds without any hit were thinned out: in the full panel of roughly 79,000, 15% have a hit. Active and inactive are the calls of the source. No stated cut-off is given here; in the data, active means growth inhibition above about 70%; inactive means the rest.
Outcomes: active, inactive

O=C1C(Cl)=C(N2C(=O)CCCC2=O)C(=O)c2ccccc21 | active
O=C1CC(c2ccccc2)NN1 (centres undefined) | inactive
CCCCCCCCCC1OCC(C)O1 (centres undefined) | inactive
CCN(CC)CCC(=O)/C=C/c1ccc(C)cc1 | inactive
CSC(=S)n1nc(-c2ccccc2)c(N=Nc2ccc(Br)cc2)c1-c1ccccc1 | inactive
CCOC(=O)c1ccc(NC(=O)O/N=C(/Cl)CCl)cc1 | inactive
O=CC(=C\c1ccco1)/C(C=O)=C\c1ccco1 | inactive
O=c1ccc2ccc(Cl)cc2[nH]1 | inactive
O=C1OC(OCC#CCOC2OC(=O)C(Cl)=C2Cl)C(Cl)=C1Cl (centres undefined) | inactive
CCCCCCCCN=C(N)c1ccc(C(=O)OCC2CCCCC2)cc1 | active
O=C(Nc1ccc(F)cc1)N1CCCCC1 | inactive
CN(C)C(C)(C)CCNc1c2ccccc2nc2cccc([N+](=O)[O-])c12 | active
CC(O)c1cccnc1 (centres undefined) | inactive
O=[N+]([O-])/C(Br)=C\c1ccc([N+](=O)[O-])cc1 | inactive

###

Recorded growth inhibition, one value per entry.
test-summary: NCI Yeast Anticancer Drug Screen. Data for the bub3 strain (AID 167)
conditions-used: S. cerevisiae bub3 mutant strain, at 50.0 µM, active compounds read high
This is part of a sample that, as a whole, favours compounds with a hit. Of some 79,000 tested, about 15% had one in any assay.
quantity-name: growth inhibition (%)

CC(C)C1=CC23CCC4C(C)(C(=O)O)CCCC4(C)C2CC1c1c(O)ccc(O)c13 (configuration not stated) | 99.2
NC(=O)C(=O)N/N=C/c1ccc([N+](=O)[O-])o1 | 14.3
Cc1ccccc1N1C(=O)C(=O)c2cccc(C)c21 | 99.8
ClC(Cl)(Cl)/C=C/c1cnc2ccccc2n1 | 85.7
[O-][n+]1ccccc1Sc1nc(Sc2cccc[n+]2[O-])nc(Sc2cccc[n+]2[O-])n1 | 90.3
CCOC(=O)C12CCSC1C1(C#N)C(C#N)=CC2(N=P(c2ccccc2)(c2ccccc2)c2ccccc2)n2c(=O)n(-c3ccccc3)c(=O)n21 (configuration not stated) | 88.5
CN(C)C(=S)/N=c1\ss/c(=N\C(=S)N(C)C)n1-c1ccc(Cl)cc1 | 90
O=C1COCC(=O)OCCOCCSCCOCCO1 | 8.75
COC(=O)c1cc(=O)n(-c2ccccc2C(F)(F)F)c(SC)n1 | 99.5
CC(=O)N1OC2(C)c3ccccc3C1(C)c1ccccc12 | 99.4
NCCSC1(O)C(=O)c2ccccc2C1=O | 48.5
Nc1ncnc2c1ncn2C1OCC(OCc2ccccc2)C(OCc2ccccc2)C1OCc1ccccc1 (configuration not stated) | 97.5
O=C(Nc1cc(-c2ccccc2)[nH]n1)c1ccccc1 | 56.8
COC(=O)/C=C/c1c2ccccc2cc2ccccc12 | 37
O=C(CNc1ccc([N+](=O)[O-])cc1)Nn1c(-c2ccccc2)nc2ccccc2c1=O | 91.8
C=C(c1ccccc1)[P+](c1ccccc1)(c1ccccc1)c1ccccc1 | 99
O=C(c1ccccc1)N(c1ccccc1)c1ccc2ccccc2c1 | 21.8

###

test-summary: NCI Yeast Anticancer Drug Screen. Data for the rad50 strain (AID 155);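 further: 0% = growth of vehicle-only cultures of the same strain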
conditions-used: S. cerevisiae rad50 strain growth inhibition; at 5.0 µM (retest, dose inferred, filed as 0.5); active compounds read high
This is part of a sample that, as a whole, favours compounds with a hit. Of some 79,000 tested, about 15% had one in any assay. The source made the active and inactive calls. Rule as the data show it: active = growth inhibition above about 70%; inactive = the rest.
quantity-name: growth inhibition

S=C1C(=Nc2ccccc2)N(c2ccccc2)/C(=N\c2cccc[n+]2Cc2ccccc2)N1c1ccccc1 | -17% (inactive)
Cn1c(=S)sc2nc3ccccc3n2c1=S | 49% (inactive)
Oc1cc(Cl)cc2c1-c1ccc(Cl)cc1C2O (centres undefined) | 9% (inactive)
O=C(O)CCn1c2ccccc2c2ccccc21 | 6% (inactive)
CC1=C(Br)S(=O)(=O)N(c2ccccc2)C(CBr)=C1Br | 57% (inactive)
CN(C)C1C[C@@H](O[Si](C)(C)C(C)(C)C)C=C1S(=O)(=O)c1ccccc1 (some centres undefined) | -16% (inactive)
CC(=O)NNc1nc(C)c(C(=O)NNC(=O)C(=O)Nc2c(C)cccc2C(C)C)s1 | 3% (inactive)
COc1ccc(C(=O)C2C(=O)C(=O)OC2C2OC(=O)C(=O)C2C(=O)c2ccc(OC)cc2)cc1 (centres undefined) | -1% (inactive)
Nc1nc(-c2ccccn2)cc2cc(Cl)ccc12 | 93% (active)
CC(C)=CCc1c2c(c3occ(-c4ccc(O)c(O)c4)c(=O)c3c1O)C=CC(C)(C)O2 | 16% (inactive)
Oc1ccc(O)c2c1N=NC21c2ccccc2Oc2ccccc21 | 5% (inactive)
CCCC(=O)c1cc(O)c(O)c(CN(C)Cc2cc(Cl)cc(C)c2O)c1O | -8% (inactive)
O=C(O)CCCCCCCCCCOc1ccc(Cl)cc1Cl | -3% (inactive)
C/C=C/CSc1cc(NC(=S)c2ccsc2C)ccc1Cl | -6% (inactive)
C=C1CC[C@@H]2C(C)(C)C(O)CCC2(C)C1COc1ccc2ccc(=O)oc2c1 (some centres undefined) | -10% (inactive)
Clc1cccc2c(-c3ccccc3)c3cccc(Cl)c3cc12 | 4% (inactive)
CC(C)n1nnc2ccccc2c1=Nc1ccccc1 | 1% (inactive)
CC(C)c1ccc(/C=C(\NC(=O)c2ccccc2)c2nc3ccccc3[nH]2)cc1 | -2% (inactive)
CCCCCCCCCCCCCC(=O)CBr | 11% (inactive)
CCOC(=O)C(C(=O)OCC)c1ccc([N+](=O)[O-])o1 | 14% (inactive)
CCCCCCCCCCCCCCCCOc1ccc(S(=O)(=O)N/N=c2/sc3ccc(S(=O)(=O)O)cc3n2C)cc1C(=O)O | 6% (inactive)
C=C1N(S(=O)(=O)c2ccc(C)cc2)C(=O)OCC12CCCC2 | -22% (inactive)
CCCCCCCCCCCCCCCC(=O)NCC[N+](CC)(CC)Cc1ccc(C[N+](CC)(CC)CCNC(=O)CCCCCCCCCCCCCCC)cc1 | 99% (active)
Cc1cc2nc(-c3ccccc3[N+](=O)[O-])[nH]c2cc1C | -3% (inactive)
Clc1nssc1=Nc1nonc1-c1ccccc1 | 59% (inactive)
[Cl][Sn]([O][Sn]([Cl])([c]1ccccc1)[CH]1CCCCC1)([c]1ccccc1)[CH]1CCCCC1 (centres undefined) | 6% (inactive)
CCC(=O)/C(=C\c1ccccc1)C(=O)C(C)CN(C)C (centres undefined) | 9% (inactive)
CSC(=S)N/N=C(\C)c1ccc[nH]1 | -2% (inactive)
O=C(NCCCCCN1CCC2(CCCCC2)CC1)C(c1ccccc1)C1CCCCC1 (centres undefined) | -1% (inactive)
O=C(O)/C=C/c1ccc(Cl)cc1Cl | 6% (inactive)
C=C1CC(C)(C)C(c2ccccc2)OC1=O (centres undefined) | 1% (inactive)
COc1cc(C2c3cc4c(cc3[C@@H](Nc3cccc(O)c3)C3COC(=O)[C@H]23)OCO4)cc(OC)c1O (some centres undefined) | 96% (active)
O=[N+]([O-])c1ccc(Sc2ccc([N+](=O)[O-])o2)o1 | 93% (active)
N#CC1C(=O)NC(=O)C(C#N)C1c1ccc(Cl)c(Cl)c1 (centres undefined) | -1% (inactive)

###

Recorded growth inhibition, one value per entry.
test-summary: NCI Yeast Anticancer Drug Screen. Data for the bub3 strain (AID 167)
conditions-used: S. cerevisiae bub3 mutant strain, at 50.0 µM, active compounds read high
Compounds without any hit were thinned out: in the full panel of roughly 79,000, 15% have a hit.
quantity-name: growth inhibition (%)

CC1SC2=NC3=C(c4ccccc4C3=O)C(c3ccc(Cl)cc3)N2C1=O (configuration not stated) | 51.8
CC(N)C1C(C)CC2C3CC=C4CC(O)CCC4(C)C3CCC21C (configuration not stated) | 84.1
COC(OC)C1C2C3C=CC(C4C(=O)OC(=O)C34)C12 (configuration not stated) | 97.2
O=[N+]([O-])c1ccccc1OS(=O)(=O)c1ccccc1 | 14.3
O=C(C[P+](c1ccccc1)(c1ccccc1)c1ccccc1)c1ccc(Br)cc1 | 97.7
Cc1cc(C)nc(NS(=O)(=O)c2ccc(Nc3c4ccccc4nc4c(C(=O)NC(CO)(CO)CO)cccc34)cc2)n1 | 4.45
COC1=CC(=O)[C@H]2CC(C)=CC[C@]2(C)C1=O | 3.35
Nc1nc(N)c(N=O)c(Nc2cccc(Br)c2)n1 | 56.1
Cc1ccc2nc(CC(=O)c3cccnc3)c(CC(=O)c3cccnc3)nc2c1 | 60.7
COc1cc2c(cc1OC)C(C)N(C)c1c-2c(OC(C)=O)cc2cc(OC)c(OC)cc12 (configuration not stated) | 42.2
COc1cc(Nc2ccc(O)cc2)c2ncccc2c1 | 45.3
CC1CCC(C(O)(C(=O)O)C2CCC(C)CC2)CC1 (configuration not stated) | 49.1
